System: NucT H124N (Helicobacter pylori 26695)
Assay Overview: EMSA
Readout: pKd
Give bare numbers, as −log10 of the molar value.

Task: Field request: pKd | item: CAACGGCATAAAGCTTGACGATTACATTGCTAGGACATCTTTGCCCACCTGCAGGTTCACCC [substrate I (XV98, 62-mer ssDNA)]
Output: 8.70
